- Test system: murine red blood cells (mRBCs)
- test-parameters: mouse, 60 min, 7.8 μg/mL
measured-property: Percentage of hemolysis (±SDEV) (%)
Number only, in %; omit the unit.

Record excerpt, results attached:
{"compound": "C/C(=N\\Nc1ccc(F)cc1)c1ccc(-c2ccc(/C(C)=N/Nc3ccc(F)cc3)cc2)cc1 [Compound 17c]", "measured-property": "Percentage of hemolysis (±SDEV)", "assay-value": 5.9}
{"compound": "Fc1ccc(N/N=C/c2ccc(-c3cccc(/C=N/Nc4ccc(F)cc4)c3)cc2)cc1 [Compound 17a]", "measured-property": "Percentage of hemolysis (±SDEV)", "assay-value": 9.5}
{"compound": "C(=N\\Nc1ccccc1)/c1ccc(-c2cccc(/C=N/Nc3ccccc3)c2)cc1", "measured-property": "Percentage of hemolysis (±SDEV)", "assay-value": 8.5}

Could you please provide reported Percentage of hemolysis (±SDEV) for Fc1ccc(N/N=C/c2ccc(-c3ccc(/C=N/Nc4ccc(F)cc4)cc3)cc2)cc1 [Compound 17b] ? Thanks! 3.2

----------
Listed here: items and their measured MIC.
- System: C. albicans ATCC MYA-1003(R) (strain G)
- protocol: MIC determination, in vitro antifungal assay (CLSI M27-A3)
- Format: cell-based, Candida albicans
- test-parameters: Candida albicans, 48 h, MIC-0, 48 h at 35° C., read-out: MIC
Number only, in µg/mL; omit the unit.

Record excerpt, results attached:
{"compound": "Fc1ccccc1N/N=C/c1ccc(-c2cccc(/C=N/Nc3ccccc3F)c2)cc1 [Compound 10a]", "measured-property": "MIC", "assay-value": 7.8}
{"compound": "Fc1cc(F)cc(N/N=C/c2ccc(-c3cccc(/C=N/Nc4cc(F)cc(F)c4)c3)cc2)c1 [Compound 22a]", "measured-property": "MIC", "assay-value": 31.3}
{"compound": "C/C(=N\\NC(=N)N)c1ccc(-c2ccc(/C(C)=N/NC(=N)N)cc2)cc1 [Compound 24c]", "measured-property": "MIC", "assay-value": 15.6}
{"compound": "COc1ccccc1N/N=C(\\C)c1ccc(-c2ccc(/C(C)=N/Nc3ccccc3OC)cc2)cc1 [Compound 9c]", "measured-property": "MIC", "assay-value": 31.3}

Now, please, on to the next compound.
Could you please provide reported MIC for N#Cc1ccc(N/N=C/c2ccc(-c3ccc(/C=N/Nc4ccc(C#N)cc4)cc3)cc2)cc1 [Compound 13b] ? Thanks! 31.3

----------
- Tested on: C. albicans ATCC 64124(R) (strain B)
- protocol: MIC determination, in vitro antifungal assay (CLSI M27-A3)
- Type: cell-based, Candida albicans
- test-parameters: strain B; MIC-0; 48 h at 35° C.
- Description: The activity of N,N′-diaryl-bishydrazones 7-22 was tested against a panel of seven strains of C. albicans: ATCC 10231(R) (A), ATCC 64124(R) (B), ATCC MYA-2876(S) (C), ATCC 90819(R) (D), ATCC MYA-2310(S) (E), ATCC MYA-1237(R) (F), and ATCC MYA-1003(R) (G). […] The MIC values of compounds 7a-24c against yeast cells (strains A-J) were determined in 96-well plates as described in the CLSI document M27-A3 with minor modifications. […]
Listed here: items and their measured MIC.

{"compound": "Fc1cc(F)cc(N/N=C/c2ccc(-c3cccc(/C=N/Nc4cc(F)cc(F)c4)c3)cc2)c1 [Compound 22a]", "MIC": "15.6 µg/mL"}
{"compound": "Fc1ccc(N/N=C/c2ccc(-c3ccc(/C=N/Nc4ccc(F)cc4)cc3)cc2)cc1 [Compound 17b]", "MIC": "15.6 µg/mL"}
{"compound": "COc1ccc(N/N=C(\\C)c2ccc(-c3ccc(/C(C)=N/Nc4ccc(OC)cc4)cc3)cc2)cc1 [Compound 15c]", "MIC": "15.6 µg/mL"}
{"compound": "COc1cccc(N/N=C(\\C)c2ccc(-c3ccc(/C(C)=N/Nc4cccc(OC)c4)cc3)cc2)c1 [Compound 11c]", "MIC": "0.98 µg/mL"}
{"compound": "COc1ccc(N/N=C/c2ccc(-c3ccc(/C=N/Nc4ccc(OC)cc4)cc3)cc2)cc1 [Compound 15b]", "MIC": "3.9 µg/mL"}

Could you please provide reported MIC for C/C(=N\Nc1ccc(F)cc1)c1ccc(-c2ccc(/C(C)=N/Nc3ccc(F)cc3)cc2)cc1 [Compound 17c] ? Thanks! 3.9 µg/mL

----------
- System: Candida parapsilosis ATCC 22019 (strain J)
- protocol: MIC determination, in vitro antifungal assay (CLSI M27-A3)
- Assay type: cell-based
- test-parameters: strain J; MIC-0; 48 h at 35° C.
Listed here: items and their measured MIC.
Write your answer as a measured quantity: the number, then the unit.

{"compound": "COc1cccc(N/N=C(\\C)c2ccc(-c3ccc(/C(C)=N/Nc4cccc(OC)c4)cc3)cc2)c1 [Compound 11c]", "MIC": "15.6 µg/mL"}
{"compound": "COc1ccc(N/N=C/c2ccc(-c3ccc(/C=N/Nc4ccc(OC)cc4)cc3)cc2)cc1 [Compound 15b]", "MIC": "15.6 µg/mL"}
{"compound": "Clc1ccc(N/N=C/c2ccc(-c3cccc(/C=N/Nc4ccc(Cl)cc4)c3)cc2)cc1 [Compound 18a]", "MIC": "3.9 µg/mL"}

Now, please, on to the next compound.
Could you please provide reported MIC for Fc1cccc(N/N=C/c2ccc(-c3ccc(/C=N/Nc4cccc(F)c4)cc3)cc2)c1 [Compound 12b] ? Thanks! 3.9 µg/mL

----------
- Test system: murine red blood cells (mRBCs)
- test-parameters: mouse, 60 min, 0.975 μg/mL
measured-property: Percentage of hemolysis (±SDEV) (%)
Number only, in %; omit the unit.

{"compound": "C[C@@H](c1ncncc1F)[C@](O)(Cn1cncn1)c1ccc(F)cc1F [VOR, voriconazole, reference compound]", "system": "murine red blood cells (mRBCs)", "unit-of-measurement": "%", "Percentage of hemolysis (±SDEV)": 10.3}
{"compound": "Fc1ccc(N/N=C/c2ccc(-c3ccc(/C=N/Nc4ccc(F)cc4)cc3)cc2)cc1 [Compound 17b]", "system": "murine red blood cells (mRBCs)", "unit-of-measurement": "%", "Percentage of hemolysis (±SDEV)": 0}
{"compound": "Fc1cccc(N/N=C/c2ccc(-c3cccc(/C=N/Nc4cccc(F)c4)c3)cc2)c1 [Compound 12a]", "system": "murine red blood cells (mRBCs)", "unit-of-measurement": "%", "Percentage of hemolysis (±SDEV)": 4.6}

Now, please, on to the next compound.
Could you please provide reported Percentage of hemolysis (±SDEV) for "C(=N\Nc1ccccc1)/c1ccc(-c2cccc(/C=N/Nc3ccccc3)c2)cc1" ? Thanks! 0

----------
Listed here: items and their measured Percentage of hemolysis (±SDEV).
- System: murine red blood cells (mRBCs)
- test-parameters: mouse, 60 min, 15.6 μg/mL
Number only, in %; omit the unit.

Record excerpt, results attached:
{"molecule": "C(=N\\Nc1ccccc1)/c1ccc(-c2cccc(/C=N/Nc3ccccc3)c2)cc1 [Compound 7a]", "system": "murine red blood cells (mRBCs)", "measured-property": "Percentage of hemolysis (±SDEV)", "unit-of-measurement": "%", "assay-value": 14.1}
{"molecule": "N=C(N)N/N=C/c1ccc(-c2cccc(/C=N/NC(=N)N)c2)cc1 [Compound 24a]", "system": "murine red blood cells (mRBCs)", "measured-property": "Percentage of hemolysis (±SDEV)", "unit-of-measurement": "%", "assay-value": 3.8}

Would you please give the reported Percentage of hemolysis (±SDEV) of C(=N\Nc1ccccc1)/c1ccc(-c2ccc(/C=N/Nc3ccccc3)cc2)cc1 [Compound 7b] with murine red blood cells (mRBCs)? 14.1

----------
- System: murine red blood cells (mRBCs)
- test-parameters: mouse, 60 min, 1.95 μg/mL
measured-property: Percentage of hemolysis (±SDEV)
Write your answer as a measured quantity: the number, then the unit.

Record excerpt, results attached:
{"compound": "C[C@@H](c1ncncc1F)[C@](O)(Cn1cncn1)c1ccc(F)cc1F [VOR, voriconazole, reference compound]", "system": "murine red blood cells (mRBCs)", "Percentage of hemolysis (±SDEV)": "6.3 ± 1.9%"}
{"compound": "COc1ccc(N/N=C/c2ccc(-c3ccc(/C=N/Nc4ccc(OC)cc4)cc3)cc2)cc1 [Compound 15b]", "system": "murine red blood cells (mRBCs)", "Percentage of hemolysis (±SDEV)": "1.9 ± 0.3%"}
{"compound": "N=C(N)N/N=C/c1ccc(-c2cccc(/C=N/NC(=N)N)c2)cc1 [Compound 24a]", "system": "murine red blood cells (mRBCs)", "Percentage of hemolysis (±SDEV)": "1.1 ± 2.2%"}

Now, please, on to the next compound.
Could you please provide reported Percentage of hemolysis (±SDEV) for Fc1cccc(N/N=C/c2ccc(-c3cccc(/C=N/Nc4cccc(F)c4)c3)cc2)c1 [Compound 12a] ? Thanks! 0.6 ± 0.6%
